biological target: NUAK family SNF1-like kinase 1 (Homo sapiens); conditions: at 1 µM
Description: GSK_PKIS: ARK5 mean inhibition at 1 uM [Nanosyn]
Listed next: entries and their corresponding inhibition.
Your answer is read as %, so omit the unit and give the number.

# input smiles, reading
measured = [
    ("CN1CCC(n2cnc(-c3ccc(F)cc3)c2-c2ccnc(N)n2)CC1", 5.58),
    ("CCCN1CCC(c2ccc(Nc3nc(Nc4cc(F)ccc4C(N)=O)c4cc[nH]c4n3)c(OC)c2)CC1", 62.8),
    ("COc1cccc(-c2c[nH]c3c(N/N=C/c4ccncc4)ncnc23)c1", 38.5),
]

Please look at the following compound next.
-- ask Entry COc1ccc2c(-c3ccnc(Nc4cccc(OC(F)(F)F)c4)n3)cnn2n1 : reported inhibition = ?
-- reply 30.7

* * *

# inhibition per entry
Biological target: Aurora kinase C (Homo sapiens) (UniProt Q9UQB9);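 also: reported value is a mean inhibition of Aurora-C from the GSK PKIS screening panel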
Sequence (whole entry): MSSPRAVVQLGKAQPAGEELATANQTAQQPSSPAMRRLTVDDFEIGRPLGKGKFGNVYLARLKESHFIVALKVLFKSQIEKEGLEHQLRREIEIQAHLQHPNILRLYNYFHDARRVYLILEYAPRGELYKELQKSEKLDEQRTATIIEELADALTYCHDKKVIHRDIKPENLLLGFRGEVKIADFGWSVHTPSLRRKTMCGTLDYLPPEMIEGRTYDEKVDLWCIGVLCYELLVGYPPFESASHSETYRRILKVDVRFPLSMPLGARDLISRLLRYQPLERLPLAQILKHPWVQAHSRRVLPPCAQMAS
Conditions: at 1 µM
Provide the reading as a plain figure in %.

Look over these answered cases.
# input smiles, reading
measured = [
    ("CC(C)(CO)CNC(=O)c1ccc2c(c1)/C(=N/Nc1ccc(S(N)(=O)=O)cc1)C(=O)N2", 43),
    ("Nc1nc(-c2cccc(Cl)c2)c(-c2ccc3ncccc3n2)s1", -2.15),
    ("COc1ccc(CNC(=O)c2ccc(-c3cc(-c4nnc(C)o4)ccc3C)cc2)cc1", -5.63),
    ("NC(=O)c1sc(-n2cnc3ccc(C(F)(F)F)cc32)cc1OCc1ccccc1Br", -6.73),
    ("COc1ccc(-c2cc3c(N)ncnc3o2)cc1", 16.7),
    ("Nc1nc(-c2ccc(F)cc2)c(-c2ccc3ncccc3n2)s1", -0.03),
    ("O=C(Nc1n[nH]c2cc(-c3ccc(F)cc3)ccc12)C1CC1", 6.95),
    ("CN(C)CCOc1ccc(-c2nc(-c3ccncc3)c(-c3ccc4c(c3)CC/C4=N\\O)[nH]2)cc1", -1.31),
    ("CCn1cc(-c2ccnc3[nH]ccc23)c(-c2cccc(NC(=O)Nc3ccc(OCc4ccccc4)cc3)c2)n1", 19.5),
]

Now consider a different molecule.
-- ask Fill in the blank: the reported inhibition of COc1ccc2c(-c3ccnc(Nc4cccc(OC(F)(F)F)c4)n3)cnn2n1 is ____.
-- reply 56.9

* * *

inhibition values by entry
target: Mitogen-activated protein kinase 3 (Homo sapiens) (UniProt P27361); settings: at 0.1 µM;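 also: each value is a mean inhibition figure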
Sequence (P27361 whole entry): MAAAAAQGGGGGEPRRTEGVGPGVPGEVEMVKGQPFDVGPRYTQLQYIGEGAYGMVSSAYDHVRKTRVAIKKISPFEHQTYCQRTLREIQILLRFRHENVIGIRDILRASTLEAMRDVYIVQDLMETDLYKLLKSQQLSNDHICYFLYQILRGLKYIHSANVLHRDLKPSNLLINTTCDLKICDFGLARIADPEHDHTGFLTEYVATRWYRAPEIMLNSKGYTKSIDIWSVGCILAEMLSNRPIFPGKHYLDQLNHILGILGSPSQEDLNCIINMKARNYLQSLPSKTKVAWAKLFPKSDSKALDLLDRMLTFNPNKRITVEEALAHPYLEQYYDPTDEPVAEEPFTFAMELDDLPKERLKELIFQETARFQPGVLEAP
Numbers only here, please. The scale is %.

# input smiles, reading
measured = [
    ("COc1cc(/C=N/Nc2ncnc3[nH]ncc23)ccc1O", 2.18),
]

-- ask Tell me the measured inhibition of c1ccc(-c2nc3n(c2-c2ccc4c(c2)OCO4)CCC3)nc1 , please.
-- reply 0.29

-- ask Would you kindly share the measured inhibition for CC(C)(CO)CNC(=O)c1ccc2c(c1)/C(=N/Nc1ccc(S(N)(=O)=O)cc1)C(=O)N2 ?
-- reply 1.78

-- ask Looking for the measured inhibition of COc1cc(N2CCN(C(C)C)CC2)ccc1Nc1nc(Nc2ccc(F)cc2C(N)=O)c2cc[nH]c2n1 , can you help?
-- reply 2.87

-- ask Returns the measured inhibition for the input compound. Input: CN1CCC(n2cnc(-c3ccc(F)cc3)c2-c2ccnc(Nc3ccccc3)n2)CC1
-- reply 3.96

-- ask Consider the compound shown here: NS(=O)(=O)c1ccc(Nc2ncc(-c3ccccc3)o2)cc1 What is its recorded inhibition?
-- reply 2.41
